- measured-on: T1, recombinant human CSF-1R (form not stated) (human, UniProt P07333 20-512, limits assumed)
- T1 construct: for the ELISA no species is stated; also called recombinant CSF-1R; recombinant CSF-1R protein
- protocol: BIAcore, experiment 2 of 3
measure: koff (s⁻¹)
Return type: number; implicit unit s⁻¹.

969gH2gL8 (antibody, human IgG4 S228P, kappa, name in Kabat numbering, V domains shown, Humanised IgG4 (S241P)/kappa, no donor residues; position is Kabat; also called Ab969.g4) VH: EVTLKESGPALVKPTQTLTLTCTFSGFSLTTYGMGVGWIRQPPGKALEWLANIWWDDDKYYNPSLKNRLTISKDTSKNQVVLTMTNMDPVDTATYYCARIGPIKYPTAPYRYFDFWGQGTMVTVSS VL: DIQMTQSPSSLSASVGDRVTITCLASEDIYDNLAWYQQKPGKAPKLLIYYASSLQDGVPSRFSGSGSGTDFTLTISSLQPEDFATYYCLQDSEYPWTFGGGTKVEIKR: 6.65e-06

Lookup result for 969gH1gL1 (antibody, human IgG4 S228P, kappa, name in Kabat numbering, V domains shown, Humanised IgG4 (S241P)/kappa; positions are Kabat; also called Ab969.g1) VH: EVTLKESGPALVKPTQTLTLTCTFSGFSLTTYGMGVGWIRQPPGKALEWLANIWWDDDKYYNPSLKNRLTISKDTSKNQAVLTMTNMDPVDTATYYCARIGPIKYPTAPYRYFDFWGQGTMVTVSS VL: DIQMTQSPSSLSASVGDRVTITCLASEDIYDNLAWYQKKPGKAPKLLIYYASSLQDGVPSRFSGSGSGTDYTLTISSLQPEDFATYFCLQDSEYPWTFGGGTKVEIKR ; measured koff: 6.04e-06

Value of koff reported for the binder 969gH2gL4 (antibody, human IgG4 S228P, kappa, name in Kabat numbering, V domains shown, Humanised IgG4 (S241P)/kappa; positions are Kabat; also called Ab969.g7) VH: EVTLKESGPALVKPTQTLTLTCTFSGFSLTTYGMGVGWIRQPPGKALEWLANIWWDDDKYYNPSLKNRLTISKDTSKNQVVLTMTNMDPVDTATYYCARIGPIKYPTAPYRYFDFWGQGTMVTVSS VL: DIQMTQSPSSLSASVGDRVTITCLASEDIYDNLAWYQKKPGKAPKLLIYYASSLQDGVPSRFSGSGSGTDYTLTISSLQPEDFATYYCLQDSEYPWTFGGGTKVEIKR is 9.41e-06
